- Tested on: NIH3T3
- Experiment description: Cytotoxic Profiling of Annotated Libraries Using Quantitative High-Throughput Screening (AID 1296008); also: % is scaled to controls: 0 for no effect and ±100 for the full control effect; nearly all actives have a fitted effect of over 60% in size
- Test settings: Five cell lines viability, CellTiter-Glo ATP luminescence, 48-72 h; stronger effect = lower value
Records with an inconclusive call do not appear. Activity calls are given as the source filed them. Calls follow the shape of the dose curve; as a rule, active = well fitted inhibition curve with a large enough effect; inconclusive = small, poorly fitted or top-dose-only effect; inactive = flat fitted curve, though single readings scatter.
Exercise: state measured max response for each of the compounds provided.

I would be grateful if you could share the reported max response for CC1=CC(=O)C2C(C)(C)CCCC2(C)C12CCC1(COC(=O)C1)O2 (stereo unspecified) .
-3.33% (inactive)

I would be grateful if you could share the reported max response for O=C(O)c1n[nH]c2c1C[C@H]1C[C@@H]21 .
-3.9% (inactive)

I would be grateful if you could share the reported max response for CC(C)=CCC/C(C)=C/CC/C(C)=C/CC[C@]1(C)CCc2cc(O)cc(C)c2O1 .
1.13% (inactive)

I would be grateful if you could share the reported max response for CC1(C)CCC[C@@]2(C)[C@H]1[C@H](O)C=C1COC(=O)[C@@]12O .
2.05% (inactive)

I would be grateful if you could share the reported max response for COC1=CC(=O)O[C@@H](CCc2ccccc2)[C@@H]1O .
3.13% (inactive)

I would be grateful if you could share the reported max response for CO[C@@H]1COCC[C@@H]1N[C@@H]1CC[C@@](C(=O)N2CCc3ncc(C(F)(F)F)cc3C2)(C(C)C)C1 .
-6.53% (inactive)

###

- Study system: Cytochrome P450 2C9 (Homo sapiens) (UniProt P11712)
- Sequence (P11712 whole entry, looked up): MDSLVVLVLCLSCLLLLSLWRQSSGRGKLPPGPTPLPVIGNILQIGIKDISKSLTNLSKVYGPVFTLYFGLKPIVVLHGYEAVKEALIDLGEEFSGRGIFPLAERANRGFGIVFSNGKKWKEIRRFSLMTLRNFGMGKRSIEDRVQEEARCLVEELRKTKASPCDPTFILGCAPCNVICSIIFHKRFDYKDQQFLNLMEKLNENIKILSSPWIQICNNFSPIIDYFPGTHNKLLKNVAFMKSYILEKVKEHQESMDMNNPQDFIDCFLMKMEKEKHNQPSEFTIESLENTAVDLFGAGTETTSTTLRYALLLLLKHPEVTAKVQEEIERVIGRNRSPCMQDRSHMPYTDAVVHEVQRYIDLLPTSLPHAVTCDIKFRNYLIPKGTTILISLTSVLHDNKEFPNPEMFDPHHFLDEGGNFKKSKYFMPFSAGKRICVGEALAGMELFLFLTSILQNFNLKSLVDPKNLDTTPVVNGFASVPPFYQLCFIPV
- Experiment description: qHTS for inhibitors of CYP2C9 against the NCATS DSHEA and TCM libraries (AID 1919973)
- Test settings: recombinant CYP2C9 enzyme activity, luminescence; series mostly up to 34.1 µM
Inconclusive results are not listed. Active and inactive are the calls of the source. Calls follow the shape of the dose curve; as a rule, active = well fitted inhibition curve with a large enough effect; inconclusive = small, poorly fitted or top-dose-only effect; inactive = no such curve, though single readings can be large or run the other way.
Form entry, call: pick from active, inactive

Give the logged outcome of this assay for the following compound: CC1=C(/C=C/C(C)=C/C=C/C(C)=C/C=C/C=C(C)/C=C/C=C(C)/C=C/C2=C(C)CCCC2(C)C)C(C)(C)CCC1
inactive

Give the logged outcome of this assay for the following compound: CCCCCCCC(=O)O
inactive

Give the logged outcome of this assay for the following compound: Cc1c(C)c2c(c(C)c1O)CC[C@@](C)(CCC[C@H](C)CCC[C@H](C)CCCC(C)C)O2
inactive

Give the logged outcome of this assay for the following compound: CC1=C(/C=C/C(C)=C/C=C/C(C)=C/CO)C(C)(C)CCC1
active

Give the logged outcome of this assay for the following compound: Oc1cc(O)c2c(c1)OC(c1ccc(O)c(O)c1)C(O)C2 (stereo unspecified)
inactive

Give the logged outcome of this assay for the following compound: C[C@H]1[C@H](C)CC[C@]2(C(=O)O)CC[C@]3(C)C(=CC[C@@H]4[C@@]5(C)C[C@@H](O)[C@H](O)[C@@](C)(CO)[C@@H]5CC[C@]43C)[C@H]12
inactive

###

- Test system: CRL-7250
- Experiment description: Cytotoxic Profiling of Annotated Libraries Using Quantitative High-Throughput Screening (AID 1296008); also: % is scaled to controls: 0 for no effect and ±100 for the full control effect; nearly all actives have a fitted effect of over 60% in size
- Test settings: Five cell lines viability, CellTiter-Glo ATP luminescence, 48-72 h; stronger effect = lower value
Records with an inconclusive call do not appear. Active and inactive are the calls of the source. Calls follow the shape of the dose curve; as a rule, active = well fitted inhibition curve with a large enough effect; inconclusive = small, poorly fitted or top-dose-only effect; inactive = flat fitted curve, though single readings scatter.
Readout kind: max response

I would be grateful if you could share the reported max response for CC(C)c1ccc(CC(=O)N2CCC[C@@H](c3cccc(OC(C)(C)C(=O)O)c3)C2)cc1 .
-8.91% (inactive)

I would be grateful if you could share the reported max response for CC(=O)O[C@@]1(C)C[C@@H](O)[C@]2(O)C=CO[C@@H](O[C@@H]3O[C@H](CO)[C@@H](O)[C@H](O)[C@H]3O)[C@@H]21 .
-0.355% (inactive)

I would be grateful if you could share the reported max response for CC1OC(OC2C(O)C(C(=O)O)OC(OC3CCC4(C)C(CCC5(C)C4C=CC4=C6CC(C)(C)CC(O)C6(C)CCC45C)C3(C)C)C2OC2OCC(O)C(O)C2O)C(O)C(O)C1O (configuration not stated) .
-1.54% (inactive)

I would be grateful if you could share the reported max response for O=C(OCc1cccc(O)c1O[C@@H]1O[C@H](CO)[C@@H](O)[C@H](O)[C@H]1O)C1(O)C(=O)C2C=CC1C1C=CC(=O)C(O)(C(=O)OCc3cccc(O)c3O[C@@H]3O[C@H](CO)[C@@H](O)[C@H](O)[C@H]3O)C21 (some centres not stated) .
-8.04% (inactive)

I would be grateful if you could share the reported max response for CCCCN(CCCC)C(=O)CN1C[C@H](c2ccc3c(c2)OCO3)[C@@H](C(=O)O)[C@@H]1c1ccc(OC)cc1 .
-2.69% (inactive)

I would be grateful if you could share the reported max response for CCOC(=O)c1ccnc(CNCC(=O)N(CC)CCN(C)C)c1 .
3.74% (inactive)

I would be grateful if you could share the reported max response for CC(C)CC(=O)O[C@@H]1OC=C(CO[C@@H]2O[C@H](CO[C@@H]3O[C@H](CO)[C@@H](O)[C@H](O)[C@H]3O)[C@@H](O)[C@H](O)[C@H]2O)[C@H]2C[C@H](O)[C@@H](CO)[C@@H]12 .
4.5% (inactive)
